experiment: Quantitative High-Throughput drug screen in 47 multiple myeloma cell lines against the NCATS MIPE library collection: OPM2_DSMZ cell viability assay (AID 1919872); conditions: OPM2 myeloma viability, CellTiter-Glo ATP luminescence, 48 h; series mostly up to 45.8 µM; also: nearly all actives have a fitted effect of over 30% in size
Inconclusive results are not listed. Calls of active or inactive are those of the source. Calls follow the shape of the dose curve; as a rule, active = well fitted cell-killing curve with a large enough effect; inconclusive = small, poorly fitted or top-dose-only effect, or effect the other way; inactive = no such curve, though single readings can be large or run the other way.
Your reply should match one of these outcome classes. y for active, n for inactive

Would you please look over these solved cases?
molecule	group
COc1cc(C=CC(=O)O)ccc1O	n
COc1ccnc(CS(=O)c2nc3ccc(OC(F)F)cc3[nH]2)c1OC (stereo not drawn)	n
COc1cc(F)c(C(C)C)cc1-c1ccc(C(F)(F)F)cc1CN1C(=O)O[C@H](c2cc(C(F)(F)F)cc(C(F)(F)F)c2)[C@@H]1C	n
Cc1ccccc1C(=O)c1ccc(Nc2ccc(Br)cc2N)cc1Cl	y
O=C1Nc2ccc(I)cc2C1=Cc1cc(Br)c(O)c(Br)c1	n

[ask] // outcome(item) with item = CC1(COc2ccc3c(c2)ncn3-c2ccc3cccc(N4CCC(N)CC4)c3n2)COC1
[reply] y

[ask] How was CCCCCOC(=O)Nc1nc(=O)n([C@@H]2O[C@H](C)[C@@H](O)C2O)cc1F (stereo partly drawn) classified in this test?
[reply] n

[ask] Could you please tell me the result logged for Clc1ccc(C2(c3ccc(-c4cn[nH]c4)cc3)CCNCC2)cc1 in this assay?
[reply] y

====

test: Quantitative High-Throughput drug screen in 47 multiple myeloma cell lines against the NCATS MIPE library collection: EJM_DSMZ cell viability assay (AID 1918926; also: nearly all actives have a fitted effect of over 30% in size); conditions: EJM myeloma cell viability, CellTiter-Glo ATP, 48 h; series mostly up to 45.8 µM
Inconclusive results are not listed. The source made the active and inactive calls. The call rests on the fitted dose curve; in most records, active means well fitted cell-killing curve with a large enough effect; inconclusive means small, poorly fitted or top-dose-only effect, or effect the other way; inactive means no such curve, though single readings can be large or run the other way.
Your answer must be one of the following: active, inactive

compound	group
CN(C)S(=O)(=O)c1ccc2c(c1)C(=Cc1cc3c([nH]1)CCCC3)C(=O)N2	active
CN1[C@H]2CC[C@H]1CC(OC(=O)c1c[nH]c3ccccc13)C2 (stereo partly specified)	inactive
Cc1nc(NC(=O)N2CCC[C@@H]2C(N)=O)sc1-c1csc(C(C)(C)C)n1	active
NS(=O)(=O)c1cc(Cl)c(Cl)c(S(N)(=O)=O)c1	inactive
Nc1ccn([C@@H]2O[C@H](CO)[C@@H](O)[C@H]2O)c(=O)n1	inactive

[ask] # lookup: test call for CC(=O)NCCC(=O)N[C@@H](CCC(N)=O)C(=O)N[C@@H](CO)C(=O)N[C@@H](CCC(N)=O)C(=O)N[C@@H](CCC(N)=O)C(=O)N[C@H](C(=O)N[C@@H](Cc1ccccc1)C(=O)N[C@]1(C)CCCCCCC=CCCC[C@@](C)(C(=O)N[C@@H](CCC(N)=O)C(=O)N[C@@H](CC(N)=O)C(N)=O)NC(=O)[C@H](CC(C)C)NC(=O)[C@H](CC(C)C)NC(=O)[C@@H](CCCNC(=N)N)NC(=O)[C@H](Cc2c[nH]c3ccccc23)NC(=O)[C@H](CC(C)C)NC(=O)[C@H](CC(N)=O)NC1=O)[C@H](C)O
[reply] active

[ask] Which outcome was entered for the compound CO[C@H]1O[C@@H]2O[C@@]3(C)CC[C@@H]4[C@@H](C)CC[C@@H]([C@H]1C)[C@@]24OO3 in this test?
[reply] active

====

assay: Quantitative High-Throughput drug screen in 47 multiple myeloma cell lines against the NCATS MIPE library collection: Delta47_JCRB cell viability assay (AID 1918925; also: nearly all actives have a fitted effect of over 45% in size; also: potency is read from the fitted curve at half-maximal effect); conditions: Delta47 myeloma viability, CellTiter-Glo ATP, 48 h; series mostly up to 45.8 µM
Records with an inconclusive call do not appear. Active and inactive are the calls of the source. Calls follow the shape of the dose curve; as a rule, active = well fitted cell-killing curve with a large enough effect; inconclusive = small, poorly fitted or top-dose-only effect, or effect the other way; inactive = no such curve, though single readings can be large or run the other way.
measuredParameter: Potency

compound	Potency
Oc1cc(O)cc(C=Cc2ccc(O)c(O)c2)c1	4.69 µM (active)
O=C(O)CCC=CCC[C@@H]1[C@H](N2CCCCC2)[C@@H](O)C[C@@H]1OCc1ccc(-c2ccccc2)cc1	inactive
NC(N)=Nc1nc(CSCCC(N)=NS(N)(=O)=O)cs1	10.5 µM (active)
Cc1ccc(S(=O)(=O)Nc2nc3ccccc3nc2Nc2ccc3nsnc3c2)cc1	0.575 µM (active)
CCCCC(F)(F)[C@@]1(O)CC[C@H]2[C@H](CC(=O)[C@@H]2CCCCCCC(=O)O)O1	inactive

// for each compound below, give its Potency
1. CC(=O)O[C@]1(C(C)=O)CC[C@H]2[C@@H]3C=C(Cl)C4=CC(=O)[C@@H]5C[C@H]5[C@]4(C)[C@@H]3CC[C@@]21C
2. C[C@@H]1O[C@@H](O[C@H]2CC[C@@]3(C)[C@H](CC[C@@H]4[C@H]3C[C@@H](O)[C@]3(C)[C@@H](C5=CC(=O)OC5)CC[C@]43O)C2)C[C@H](O)[C@@H]1O[C@H]1C[C@H](O)[C@H](O[C@H]2C[C@H](O)[C@@H](O)[C@@H](C)O2)[C@H](C)O1 (stereo in doubt)
3. C[C@@H]1[C@H](O)[C@@H](C)C=CC=CC=CC=CC=CC=CC=C[C@H](O[C@@H]2O[C@H](C)[C@H](O)[C@H](N)[C@@H]2O)C[C@@H]2O[C@](O)(C[C@@H](O)C[C@@H](O)[C@H](O)CC[C@@H](O)C[C@@H](O)CC(=O)O[C@H]1C)C[C@H](O)[C@@H]2C(=O)O
4. Nc1[nH]nc2nnc(-c3c(-c4ccccc4)nn4ccccc34)cc12
5. CCN1CCN(c2ccc(Nc3cc(N(C)C(=O)Nc4c(Cl)c(OC)cc(OC)c4Cl)ncn3)cc2)CC1
6. O=C(c1ccc(C(=O)N2CCC(N3CCCC3)CC2)c(Nc2ccccc2)c1)N1CCC(N2CCCC2)CC1
7. CNC(=O)[C@H](CC1=CN=C2C=CCC=C12)NC(=O)[C@@H](CC(=O)NO)CC(C)C
8. O=C(O)CCNc1cc(N2CCc3ccccc3CC2)nc(-c2ccccn2)n1

[reply]
["8.33 µM (active)", "0.241 µM (active)", "inactive", "4.69 µM (active)", "0.0093 µM (active)", "inactive", "26.4 µM (active)", "inactive"]

[ask] What Potency value was documented for this compound, CNC(=O)[C@H](Cc1ccccc1)NC(=O)[C@H](CC(C)C)[C@H](CSc1cccs1)C(=O)NO ?
[reply] 18.7 µM (active)
